# System: DMS-114
# method_description: NCI tumour cell line growth inhibition, 48 h
Activity calls are given as the source filed them. Cut-off read from the data, not from the text of the source: active = GI50 up to about 1.1 µM and inactive = higher.
Permitted responses: yes (1) for active, no (0) for inactive

Reference set (5 entries):
{"molecule": "CCOC(=O)C(=O)Nc1ccccc1OCC", "assigned_category": "no (0)"}
{"molecule": "O=C1NC2C(O)CCCCC2C12CCCCC2 (stereo not given)", "assigned_category": "no (0)"}
{"molecule": "CCC1=C(C)/C(=C/c2[nH]c(C(Br)Br)c(CC)c2C)N=C1C(Br)Br", "assigned_category": "no (0)"}
{"molecule": "O=C(O)/C(Cl)=C(\\Cl)C(=O)Nc1ccc(Cl)c(Cl)c1Cl", "assigned_category": "no (0)"}
{"molecule": "COc1ccc(/C=C/C(=O)c2sc(NC(=S)NC(=O)c3ccccc3F)nc2C)cc1OC", "assigned_category": "no (0)"}

Recorded test call requested for "CN(C)C(=S)/N=c1\ssc(=S)n1Cc1cccnc1"
yes (1)

Check CCCCCCCCCCCCCCCCCCOCC1(COP(=O)([O-])OCC[N+](C)(C)C)CCCO1 (stereo not given) too.
no (0)

Next record, please: "O=C1c2cccc3cccc(c23)C(=O)N1CCCN1CCN(CCCN2C(=O)c3cccc4cccc(c34)C2=O)CC1"
no (0)

Next record, please: C=C[C@H]1C=Cc2c(OC)cccc2[C@@H]1COP1(=S)NC(C)C(c2ccccc2)O1 (stereo not given in full)
no (0)

Item: Cn1cnc([N+](=O)[O-])c1Sc1nc(N)nc2c1ncn2C1OC(CO)C(O)C1O (stereo not given)
no (0)

* * *

Record form. Attribute: GI50. Fill in for each entry.
# Test system: COLO 205
# method_description: NCI tumour cell line growth inhibition, 48 h
Activity calls are given as the source filed them. No stated cut-off is given here; in the data, active = GI50 up to about 1.1 µM and inactive = higher.

Here is how some compounds turned out for GI50.
{"compound": "C/C(=N\\[N+](C)(C)C)c1ccc(C)c(C)c1", "assay_readout": "GI50", "assay_result": "14.6 µM (inactive)"}
{"compound": "CCC(=O)O[C@H]1CC[C@H]2[C@@H]3CCC4=C/C(=N/OC(=O)c5cccc6cc7ccccc7nc56)CC[C@]4(C)[C@H]3CC[C@]12C", "assay_readout": "GI50", "assay_result": "41 µM (inactive)"}
{"compound": "CC1CC2C3CCC4=CC(=O)C=CC4(C)C3(F)C(O)CC2(C)C1(O)C(=O)CO.Cc1cc(NS(=O)(=O)c2ccc(/N=N\\c3cc(/N=N/c4ccc(S(=O)(=O)Nc5cc(C)nc(C)n5)cc4)c(OC(=O)C(Cl)Cl)c4cccc(NC(=O)C(Cl)Cl)c34)cc2)nc(C)n1", "assay_readout": "GI50", "assay_result": "28.2 µM (inactive)"}
{"compound": "Nc1nc(CCC(=O)Nc2cccc(C(F)(F)F)c2)cc(-c2ccc3ccccc3c2)n1", "assay_readout": "GI50", "assay_result": "> 100 µM (inactive)"}

Record GI50 for all entries; do not skip any.
1. Clc1ccc(C2NN=C3c4ccccc4OCC32)cc1 (stereo not drawn)
2. CNC(=O)/C(C#N)=C(\N)N1CCCC1
3. O=C(O)/C(Cl)=C(\Cl)C(=O)Nc1ccc(Cl)c(Cl)c1Cl

["2.96 µM (inactive)", "> 100 µM (inactive)", "20 µM (inactive)"]

Query: GI50; subject: "C=CCN1C[C@@H](C)N([C@@H](c2ccc(C(=O)N(CC)CC)cc2)c2cccc(OC)c2)C[C@@H]1C"
> 100 µM (inactive)

* * *

# Tested on: 786-0
# method_description: NCI tumour cell line growth inhibition, 48 h
Calls of active or inactive are those of the source. Cut-off read from the data, not from the text of the source: active = GI50 up to about 1.1 µM and inactive = higher.
Select the correct class. Options are true (1) for active, false (0) for inactive and nothing else.

Before answering, review these 5 worked examples.
{"molecule": "CCOC(=O)c1ccc2nc(NC(=O)COC(=O)CSc3nc(C)cc(C)n3)sc2c1", "assay_system": "786-0", "assigned_category": "false (0)"}
{"molecule": "O=C(c1c(F)c(F)c(F)c(F)c1F)c1c(F)c(F)c(F)c(F)c1F", "assay_system": "786-0", "assigned_category": "true (1)"}
{"molecule": "CC(C)(C)c1cc(OCc2nnc3sc(Cc4ccccc4)nn23)c(Cl)cc1OCc1nnc2sc(Cc3ccccc3)nn12", "assay_system": "786-0", "assigned_category": "false (0)"}
{"molecule": "COc1ccc(-c2c(C#N)c(N)nc(Sc3ccccc3N)c2C#N)cc1", "assay_system": "786-0", "assigned_category": "false (0)"}
{"molecule": "C=C1CC2(CCS(=O)(=O)c3ccccc32)OC1=O (stereo not drawn)", "assay_system": "786-0", "assigned_category": "false (0)"}

Tell me the assay call for "O=C(O)Cc1ccc(-n2nnc3c(=O)[nH][nH]c(=O)c32)cc1" please.
false (0)

Now try "COc1ccc(C)cc1-c1ccc(-c2cc(C)ccc2OC)o1" .
false (0)

Could you do the same for "N#CCN(Cc1ccccc1)[C@H]1CCC[C@]1(O)/C=C/c1ccc2c(c1)OCO2" , please?
false (0)

Follow-up item: COC1CC(OC(=O)c2ccccc2)C(OC(=O)c2ccccc2)C(C)O1 (stereo not drawn)
false (0)

Query "COc1ccc2c(c1)/C(=C\c1c(Cl)nc3sc(C)cn13)C(=O)N2" next
false (0)

For "Brc1cccc(/N=N/N2CCCC2)c1" then?
false (0)

* * *

# Test system: ACHN
# method_description: NCI tumour cell line growth inhibition, 48 h
The source made the active and inactive calls. Rule as the data show it: active = GI50 up to about 1.1 µM and inactive = higher.
Give GI50 for every item shown.

{"compound": "COc1ccc(-c2oc3cc(OC)c(OC)c(O)c3c(=O)c2OC)cc1", "assay_system": "ACHN", "GI50": "33.3 µM (inactive)"}
{"compound": "COc1ccc2oc(=O)c(CC=C(C)C)c(O)c2c1C", "assay_system": "ACHN", "GI50": "> 100 µM (inactive)"}
{"compound": "Cc1ccc(S(=O)(=O)Oc2nc3nc4ccccc4nc3nc2OS(=O)(=O)c2ccc(C)cc2)cc1", "assay_system": "ACHN", "GI50": "> 100 µM (inactive)"}
{"compound": "COc1ccc(OC)c2c(C(=O)O)c(C(C)c3ccccc3)ccc12 (stereo unspecified)", "assay_system": "ACHN", "GI50": "> 100 µM (inactive)"}
{"compound": "N#Cc1nc(-c2cc([N+](=O)[O-])cc([N+](=O)[O-])c2)oc1N", "assay_system": "ACHN", "GI50": "> 10 µM (inactive)"}

Lab note: each compound below needs its GI50 filled in.
1. CC(=O)Oc1cc(S(=O)(=O)Nc2n[nH]c(Nc3ccc(C)cc3)n2)c(S)cc1Cl
2. CC(O)CCC(=O)c1ccoc1 (stereo unspecified)
3. COc1ccc(/C=C/C(=O)c2sc(NC(=S)NC(=O)c3ccccc3F)nc2C)cc1OC
4. COc1ccc(S(=O)(=O)O)cc1NS(=O)(=O)c1ccc(C)cc1
5. CC1(C)SCc2nc3ncccc3n21
6. CN1C[C@@H]2CC(=O)CC[C@@H]2C[C@H]1C#N

1. 54.8 µM (inactive)
2. 5640 µM (inactive)
3. > 100 µM (inactive)
4. > 100 µM (inactive)
5. > 100 µM (inactive)
6. > 100 µM (inactive)

* * *

# Tested on: NCI/ADR-RES
# method_description: NCI tumour cell line growth inhibition, 48 h
Calls of active or inactive are those of the source. No stated cut-off is given here; in the data, active = GI50 up to about 1.1 µM and inactive = higher.
Pick one: true (1) (active), false (0) (inactive)

{"molecule": "O=c1cc(-c2ccccc2)[nH]c2ccc(N3CCOCC3)cc12", "assigned_category": "true (1)"}

Now consider a different molecule.
Lab log entry: "Cc1cc(=O)n2c3c(c4c(cc13)c(CN(C)C)cc(=O)n4C)OC2" — outcome as called in the assay?
false (0)

* * *

# System: HCC 2998
# method_description: NCI tumour cell line growth inhibition, 48 h
Activity calls are given as the source filed them. Cut-off read from the data, not from the text of the source: active = GI50 up to about 1.1 µM and inactive = higher.
Write down the outcome that applies. Available outcomes: active, inactive

{"compound": "Clc1ccc(Nc2nc(Cl)c3nc[nH]c3n2)cc1Cl", "assay_system": "HCC 2998", "assigned_category": "inactive"}

Assay outcome for CCOC(OCC)C(CC)[Se]c1ccccc1 (stereo not given) : what was it?
inactive

Now consider COc1cc2cc(C(=O)N3CC(CCl)c4ccc(O)cc43)[nH]c2c(OC)c1OC (stereo not given) .
active

* * *

Please provide measured GI50 for the entries that follow.
# System: HOP-18
# method_description: NCI tumour cell line growth inhibition, 48 h
Calls of active or inactive are those of the source. Cut-off read from the data, not from the text of the source: active = GI50 up to about 1.1 µM and inactive = higher.

{"compound": "O=c1nc(NC(c2ccccc2)(c2ccccc2)c2ccccc2)ccn1CCCl", "GI50": "25.5 µM (inactive)"}
{"compound": "CCOC(=O)C1S/C(=N\\c2cccc(Cl)c2C)N=C1C (centres undefined)", "GI50": "28.7 µM (inactive)"}
{"compound": "Cc1cc(C(=O)NCCN(C)C)c2nc3ccccc3cc2c1", "GI50": "1.74 µM (inactive)"}

// switching to the query compound
Consider the compound CC1NC(=O)C(C)C(c2ccccc2)N(N=O)C1c1ccccc1 (centres undefined) and give its measured GI50.
96.8 µM (inactive)

Sourced from ChEMBL document CHEMBL1201862
